# Tested on: Huh-7
# Procedure details: Cytotoxicity against human Huh-7 cells assessed as reduction in cell viability
# Assay type: toxicity, cell-based
# Study conditions: huh-7

- Molecule: "CC(C)C[C@H](NC(=O)[C@H](Cc1cccc2ccccc12)NC(=O)OCc1ccccc1)C(=O)N[C@H](C=O)C[C@@H]1CCCNC1=O"
  Subject of test: "Huh-7"
  Operator symbol: "="
  CC50 / µM: 38.9
- Molecule: "CC(C)C[C@H](NC(=O)[C@H](Cc1cccc2ccccc12)NC(=O)c1cc(C(F)(F)F)on1)C(=O)N[C@H](C=O)C[C@@H]1CCCNC1=O"
  Subject of test: "Huh-7"
  Operator symbol: "="
  CC50 / µM: 42.5
- Molecule: "CC(C)C[C@H](NC(=O)[C@H](Cc1cccc2ccccc12)NC(=O)OCc1ccccc1)C(=O)N[C@H](C=O)Cn1ccnn1"
  Subject of test: "Huh-7"
  Operator symbol: "="
  CC50 / µM: 25.3
- Molecule: "Cc1cc(C(=O)N[C@@H](Cc2cccc3ccccc23)C(=O)N[C@@H](CC(C)C)C(=O)N[C@@H](C[C@@H]2CCCNC2=O)C(O)S(=O)(=O)[O-])no1.[Na+] (stereo partly specified)"
  Subject of test: "Huh-7"
  Operator symbol: "="
  CC50 / µM: 51.1
- Molecule: "Cc1cc(C(=O)N[C@@H](Cc2cccc3ccccc23)C(=O)N[C@@H](CC(C)C)C(=O)N[C@@H](C[C@@H]2CCCNC2=O)C(O)C(=O)NC2CC2)no1 (stereo partly specified)"
  Subject of test: "Huh-7"
  Operator symbol: ">"
  CC50 / µM: 100
- Molecule: "Cc1cc(C(=O)N[C@@H](Cc2cccc3ccccc23)C(=O)N[C@@H](CC(C)C)C(=O)N[C@H](C=O)C[C@@H]2CCCNC2=O)no1"
  Subject of test: "Huh-7"
  Operator symbol: "="
  CC50 / µM: 32.7
